Origin of the recorded values: the supplement of paper PMC7877785

I'd be grateful if you could share measured self-splicing fitness (ln) for these entries.
- methodSummary: self-splicing fitness, log relative to wild type (ln ratio); higher = more splicing; Tetrahymena group I intron in knt gene, E. coli kanamycin selection, DiMSum; sequences stand for … in CUCUCU…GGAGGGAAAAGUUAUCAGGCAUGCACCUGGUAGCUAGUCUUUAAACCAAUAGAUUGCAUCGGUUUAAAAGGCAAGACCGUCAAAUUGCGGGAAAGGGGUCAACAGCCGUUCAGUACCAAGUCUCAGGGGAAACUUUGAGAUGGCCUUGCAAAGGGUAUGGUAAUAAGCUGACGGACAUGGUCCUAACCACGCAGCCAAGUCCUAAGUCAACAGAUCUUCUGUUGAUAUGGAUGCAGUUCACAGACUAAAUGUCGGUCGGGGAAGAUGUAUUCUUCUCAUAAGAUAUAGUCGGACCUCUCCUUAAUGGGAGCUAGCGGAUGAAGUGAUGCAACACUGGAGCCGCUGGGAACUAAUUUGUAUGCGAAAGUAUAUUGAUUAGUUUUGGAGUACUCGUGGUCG;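 further: selection with 25 µg/mL kanamycin versus none on LB agar overnight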
- cond: 37 °C
Field format: numeric only.

State its self-splicing fitness (ln): CUAAAGCAAUAUUACGGGUG
0.493

Supply measured self-splicing fitness (ln) of CAGCAGCAAUAUUACGUCAU in your reply.
-2.77

Answer with the recorded self-splicing fitness (ln) of AGCUAGCAAUAUUACGAGAC only.
-2.14

Provide only the value of recorded self-splicing fitness (ln) for UCUGAGCAAUAUUACGUCGC
-2.54

Give the measured self-splicing fitness (ln) for ACUCAGCAAUAUUACGGAAG
-0.89

Supply reported self-splicing fitness (ln) belonging to this sequence: GAGGAGCAAUAUUACGCUCG
-1.26

Identify the reported self-splicing fitness (ln) for the following entry. GAAUAGCAAUAUUACGAACU
0.508

Indicate its recorded self-splicing fitness (ln); the sequence in question is AUCAAGCAAUAUUACGGUCG
-2.03

Please report the measured self-splicing fitness (ln) for UCUCAGCAAUAUUACGACUG
-3.11

// fetch self-splicing fitness (ln) given entry ACACAGCAAUAUUACGUUCU
-0.532

Report self-splicing fitness (ln) for CACUAGCAAUAUUACGCCAG
-0.0668

Given the sequence CACAAGCAAUAUUACGUGAC , write its reported self-splicing fitness (ln).
-2.77

Please look at this sequence and report its self-splicing fitness (ln): GGCUAGCAAUAUUACGGAGG
-1.58

Name the recorded self-splicing fitness (ln) of the sequence listed here: CACGAGCAAUAUUACGAUGC
-2.74

Consider the sequence GUAGAGCAAUAUUACGCUGA and give its recorded self-splicing fitness (ln).
-1.15

Give the value of self-splicing fitness (ln) reported for the following: CUCGAGCAAUAUUACGCCGU
-1.79
